Below, each entry is listed with its recorded Post-emergence action against DIGSA.
# Tested on: DIGSA
# measurement notes: Post-emergence herbicidal action against DIGSA
# Type: in vivo, Digitaria sanguinalis
# test context: 20 g/ha
measured quantity: Post-emergence action against DIGSA (%)

Cc1c(C(=O)Nc2nnnn2C)ccc(C(F)F)c1C(=O)NCC(F)F : 90
CCCNC(=O)c1c(C(F)F)ccc(C(=O)Nc2nnc(C)o2)c1Cl : 90
CCn1nnnc1NC(=O)c1ccc(C(F)(F)F)c(C(=O)NCC2CC2)c1C1CC1 : 100
CCn1nnnc1NC(=O)c1ccc(C(F)F)c(C(=O)NCC2CC2)c1C : 90
CCCn1nnnc1NC(=O)c1ccc(C(F)(F)F)c(C(=O)NC2CC2)c1CC : 90
CCn1nnnc1NC(=O)c1ccc(C(F)(F)F)c(C(=O)NCCOC)c1C : 100
